These entries and their values trace back to the supplement of paper PMC12042874.

protocol text: amyloid nucleation score (Sup35N fusion, yeast selection) (log enrichment); library NNK3; higher = more nucleation; inactive = no reads after selection;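 also: zero at mode of non-aggregating sequences after 7 days selection at 30°C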
experimental readout: amyloid nucleation score

| ordered residues | reported |
| --- | --- |
| FISSSSTRILQYGRYTVEIN | inactive |
| VMLRMDARQWHSLATVTVVP | inactive |
| ICFGDKVRIKFFVPSIFSWY | inactive |
| FKPTRSHQGSFSSVTMFLVG | 0.261 |
| VCYDVCGRGWTCQY | -0.011 |
| LMDPNGLVQGLFYMELLT | inactive |
| MRYFFLTRNLGLRAEPVC | inactive |
| GVWRLSVYT | inactive |
| IFLYNVLIGLCLDNPYKLFG | inactive |
